Measured target: human TLR8 (Homo sapiens (Human))
Sequence (Q9NR97 27-1041): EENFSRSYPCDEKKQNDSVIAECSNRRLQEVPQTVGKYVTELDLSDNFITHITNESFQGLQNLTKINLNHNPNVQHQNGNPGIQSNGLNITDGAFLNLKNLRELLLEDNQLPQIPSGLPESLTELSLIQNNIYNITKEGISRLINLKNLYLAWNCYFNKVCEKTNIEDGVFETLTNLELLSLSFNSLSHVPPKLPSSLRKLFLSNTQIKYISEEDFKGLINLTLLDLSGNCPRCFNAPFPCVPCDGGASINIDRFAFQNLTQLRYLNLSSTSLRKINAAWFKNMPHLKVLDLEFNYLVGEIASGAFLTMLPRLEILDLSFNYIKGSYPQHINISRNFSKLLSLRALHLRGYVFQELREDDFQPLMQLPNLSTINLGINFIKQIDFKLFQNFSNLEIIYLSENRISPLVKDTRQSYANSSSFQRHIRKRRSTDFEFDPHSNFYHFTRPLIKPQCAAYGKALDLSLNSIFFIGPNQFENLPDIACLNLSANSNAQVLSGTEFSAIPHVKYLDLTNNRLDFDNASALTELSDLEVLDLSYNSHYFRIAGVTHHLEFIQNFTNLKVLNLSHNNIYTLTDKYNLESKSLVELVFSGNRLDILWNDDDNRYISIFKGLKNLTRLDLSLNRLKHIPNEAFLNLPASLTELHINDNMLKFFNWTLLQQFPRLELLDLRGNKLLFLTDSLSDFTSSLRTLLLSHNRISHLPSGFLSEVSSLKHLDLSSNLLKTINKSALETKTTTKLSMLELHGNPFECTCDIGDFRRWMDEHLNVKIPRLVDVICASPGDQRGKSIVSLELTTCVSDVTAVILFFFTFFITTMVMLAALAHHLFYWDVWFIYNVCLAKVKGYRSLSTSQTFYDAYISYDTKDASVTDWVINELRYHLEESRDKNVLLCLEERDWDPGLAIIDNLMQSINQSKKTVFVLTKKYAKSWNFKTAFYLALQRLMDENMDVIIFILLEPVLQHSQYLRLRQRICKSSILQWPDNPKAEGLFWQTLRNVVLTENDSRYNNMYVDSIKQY
Protocol text: TLR8 inhibition reporter assay (HEK-Blue SEAP);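 also: SEAP driven by IFN-β minimal promoter with five NF-κB and AP-1 sites, compounds tested 0.05 nM to 50 µM, 22 h incubation, inhibition relative to agonist plus DMSO wells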
Condition details: read-out: TLR8 IC50; HEK-Blue cells overexpressing human TLR8, R848 15.9 μM stimulation, SEAP reporter
Quick reference for IC50 among some molecules
Quantity: IC50 (µM)

{"Molecule": "Cc1c(-c2[nH]c3cnc(C4CCN(C(C)C)CC4)cc3c2C(C)C)cn2ncnc2c1C", "Quantity": "IC50", "Reported": 0.0028}
{"Molecule": "COc1cc(-c2[nH]c3cnc(N4CCC(N5CC6(COC6)C5)CC4)c(C)c3c2C(C)C)cn2ncnc12", "Quantity": "IC50", "Reported": 0.001}
{"Molecule": "Cc1c(-c2[nH]c3cnc(N4CC5(CN(CC#N)C5)C4)c(F)c3c2C(C)C)cn2ncnc2c1C", "Quantity": "IC50", "Reported": 0.03}
{"Molecule": "COc1cc(-c2[nH]c3cnc(C4CCC(NC5CCOCC5)CC4)c(C)c3c2C(C)C)cn2ncnc12 (stereo not shown) [Example 176]", "Quantity": "IC50", "Reported": 0.018}
